The following compounds are listed with their measured EC50 values.
Target: human 5-HT4(a) (Homo sapiens)
Assay: Evaluation of agonistic activity in CHO-K1 cells expressing human 5-HT4(a) (GeneBlAzer HTR4-CRE-bla CHO-K1, beta-lactamase reporter)
Settings: CHO-K1 cells stably expressing human 5-HT4(a)
Structures can show the parent of a compound that is named as a salt.
Output spec: scalar in nM, unitless text.

CCCc1cc(N2CC[C@H](NC)C2)nc(Nc2cccc(C#N)c2)n1 = 0.012
CCCc1cc(N2CC[C@H](NC(=O)Cc3cccnc3)C2)nc(Nc2ccc(C)c(C#N)c2)n1 = 0.066
CCCc1cc(N2CCC(NCC3CC3)C2)nc(Nc2cccc(C#N)c2)n1 (centres unmarked) [Example 387, dihydrochloride] = 0.007
CCCc1cc(N2CCC[C@H]2C)nc(Nc2ccc(F)c(N)c2)n1 = 0.024
CCCCN1CCC(N[C@H]2CCN(c3cc(CCC)nc(Nc4cccc(C#N)c4)n3)C2)CC1 = 0.082
CCCN[C@H]1CCN(c2cc(CCC)nc(Nc3ccc(C)c(C#N)c3)n2)C1 = 0.0034
CCCc1cc(N2CC[C@H](NCC(C)C)C2)nc(Nc2cccc(C#N)c2)n1 = 0.017
CCCc1cc(N2CC[C@H](NC)C2)nc(Nc2ccc(N)c(C(F)(F)F)c2)n1 [Example 123, dihydrochloride] = 0.0019
CCCc1cc(N2CC[C@H](N(CC3CC3)CC3CC3)C2)nc(Nc2cccc(C#N)c2)n1 = 0.31
CCCc1cc(N2CC[C@H](NC(C)=O)C2)nc(Nc2ccc(F)c([N+](=O)[O-])c2)n1 = 0.016

// returns reported EC50 for input CCCc1cc(N2CCC[C@H]2CO)nc(Nc2ccc(C)c(C#N)c2)n1
0.017

// returns reported EC50 for input CCCc1cc(N2CC[C@H](NC(C)=O)C2)nc(Nc2cc(Cl)ccc2C)n1
0.023

// returns reported EC50 for input CCCCc1cc(N2CC[C@H](NC)C2)nc(Nc2cc(N)cc(C#N)c2)n1
0.003

// returns reported EC50 for input CCCc1cc(N2CCC[C@H]2CO)nc(Nc2cccc([N+](=O)[O-])c2)n1
0.083

// returns reported EC50 for input CCCc1cc(N2CCC[C@H]2CO)nc(Nc2cccc(SC)c2)n1
0.25

// returns reported EC50 for input CCCc1cc(N2CC[C@H](N)C2)nc(Nc2ccc3cc[nH]c3c2)n1
0.014

// returns reported EC50 for input CCCc1cc(N2CC[C@H](N)C2)nc(Nc2ccc(C)c(N)c2)n1
0.049

----------
Target: human 5-HT4(a) (Homo sapiens, UniProt Q13639)
Sequence (Q13639 1-387 isoform Q13639-2): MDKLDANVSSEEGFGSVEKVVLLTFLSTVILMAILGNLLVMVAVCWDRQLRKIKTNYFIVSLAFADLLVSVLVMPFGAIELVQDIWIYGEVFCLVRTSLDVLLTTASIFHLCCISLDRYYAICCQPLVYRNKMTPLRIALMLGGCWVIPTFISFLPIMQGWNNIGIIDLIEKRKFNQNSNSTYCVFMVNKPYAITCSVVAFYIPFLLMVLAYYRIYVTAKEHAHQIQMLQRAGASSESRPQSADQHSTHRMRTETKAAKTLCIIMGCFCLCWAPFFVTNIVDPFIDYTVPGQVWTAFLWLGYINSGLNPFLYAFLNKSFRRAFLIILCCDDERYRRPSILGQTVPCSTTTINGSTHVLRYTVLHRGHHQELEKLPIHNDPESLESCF
Assay: Evaluation of agonistic activity in CHO-K1 cells expressing human 5-HT4(a) (GeneBlAzer HTR4-CRE-bla CHO-K1, beta-lactamase reporter)
Conditions: CHO-K1 cells stably expressing human 5-HT4(a)
Where a name gives a salt, the structure may show the parent alone.
Result Type: pEC50
As a rule, pEC50 stands for the negative log10 of the concentration, concentration in M.

Solved cases below.
CCCc1cc(N2CC[C@H](N)C2)nc(Nc2ccc(Cl)c([N+](=O)[O-])c2)n1 [Example 344, dihydrochloride] = 11.04
CCCc1cc(N2CCC[C@H]2CNCCO)nc(Nc2cccc(C#N)c2)n1 [Example 407] = 9.60
CCCc1cc(N2CCC(N)C2)nc(Nc2ccc(F)c(C#N)c2)n1 (centres unmarked) [Example 182] = 10.44
CCCc1cc(N2CCC(NC(C)=O)C2)nc(Nc2ccc(F)c([N+](=O)[O-])c2)n1 (centres unmarked) [Example 296] = 10.41

Given the entry CCCc1cc(N2CC[C@H](NC(=O)CCN3CCCCC3)C2)nc(Nc2cccc(C#N)c2)n1 [Example 63] , what pEC50 was observed with human 5-HT4(a) (Homo sapiens, UniProt Q13639)?
9.89

Given the entry CCCc1cc(N2CCC[C@H]2CO)nc(Nc2cccc(C#N)c2)n1 [Example 194] , what pEC50 was observed with human 5-HT4(a) (Homo sapiens, UniProt Q13639)?
9.70

Given the entry CCCc1cc(N2CC[C@H](NC(C)=O)C2)nc(Nc2ccc(N)c(C#N)c2)n1 [Example 260] , what pEC50 was observed with human 5-HT4(a) (Homo sapiens, UniProt Q13639)?
10.82
